# Test system: DU-145 prostate
# PROCEDURE DETAILS: NCI-60 one-dose screen, 48 h
# EXPERIMENTAL CONTEXT: 10 µM unless noted
The panel holds about 83,000 compounds, 20% with a hit somewhere; the sample as a whole holds those more often. Activity calls are given as the source filed them. Rule for the calls: active = growth percent below 10; inactive = the rest.
Outcome codes: active, inactive

COMPOUND: COc1ccc(-n2c(-c3ccccc3)c(-c3ccccc3)c3c(SCC(=O)N/N=C/c4ccc(Cl)cc4)ncnc32)cc1
ASSIGNED CLASS: inactive
--
COMPOUND: Fc1ccc(-c2nc(-c3nc4ncccc4[nH]3)cc3c2[nH]c2ccccc23)cc1F
ASSIGNED CLASS: inactive
--
COMPOUND: COc1ccc(-c2nc(-c3nc4cc(C)c(C)cc4[nH]3)cc3c2[nH]c2ccccc23)cc1
ASSIGNED CLASS: inactive
--
COMPOUND: CC(C)(C)n1cc(-c2ccnc(NCCNS(=O)(=O)c3ccc(C(F)(F)F)cc3)c2)c(-c2cccc(O)c2)n1
ASSIGNED CLASS: inactive
--
COMPOUND: CC(=O)Nc1scc[n+]1Cc1ccccc1
ASSIGNED CLASS: inactive
--
COMPOUND: Cn1c2ccc(Br)cc2c2c3c(c4c5ccccc5[nH]c4c21)C(=O)N(O)C3=O
ASSIGNED CLASS: active
--
COMPOUND: COc1ccc(NC(=O)c2c(Nc3ccc(OC)cc3OC)n[nH]c2N)c(OC)c1
ASSIGNED CLASS: inactive
--
COMPOUND: COC(=O)[C@]12CC[C@@H](C)[C@H](C)[C@@H]1C1=CC[C@@H]3[C@@]4(C)C(C=O)=C[C@@](C)(COC(=O)c5ccco5)[C@@H]4[C@H](O)C[C@@]3(C)[C@]1(C)CC2
ASSIGNED CLASS: active
--
COMPOUND: COc1ccc(C(=O)c2cc(OC)c3c(c2)OCO3)cc1O
ASSIGNED CLASS: active
--
COMPOUND: COc1ccc(/C(C#N)=C/c2cc(OC)c(OC)c(OC)c2)cc1
ASSIGNED CLASS: inactive
--
COMPOUND: COc1ccc(Nc2ncccc2C(=O)NCc2cn(Cc3cccc(Oc4ccccc4)c3)nn2)cc1
ASSIGNED CLASS: inactive
--
COMPOUND: c1cc2[nH]ncc2cc1-c1nc2ccc3[nH]ncc3c2c2c1CCC2
ASSIGNED CLASS: inactive
--
COMPOUND: COc1ccc2[nH]c(=O)c3c4ccccc4cn3c2c1
ASSIGNED CLASS: inactive
--
COMPOUND: CCC(C)/C(=C\C#N)NCCCN/C(=C/C#N)C(C)CC (stereo unspecified)
ASSIGNED CLASS: inactive
--
COMPOUND: CCN(CC)CCCNc1nccc2ccc(Cl)cc12
ASSIGNED CLASS: inactive
--
COMPOUND: C=C(C)[C@@H]1C[C@@H]2Cc3cc(Cl)ccc3N1O2
ASSIGNED CLASS: inactive
